Biological target: Glycylpeptide N-tetradecanoyltransferase 1 (Homo sapiens, UniProt P30419)
Sequence (P30419 whole entry): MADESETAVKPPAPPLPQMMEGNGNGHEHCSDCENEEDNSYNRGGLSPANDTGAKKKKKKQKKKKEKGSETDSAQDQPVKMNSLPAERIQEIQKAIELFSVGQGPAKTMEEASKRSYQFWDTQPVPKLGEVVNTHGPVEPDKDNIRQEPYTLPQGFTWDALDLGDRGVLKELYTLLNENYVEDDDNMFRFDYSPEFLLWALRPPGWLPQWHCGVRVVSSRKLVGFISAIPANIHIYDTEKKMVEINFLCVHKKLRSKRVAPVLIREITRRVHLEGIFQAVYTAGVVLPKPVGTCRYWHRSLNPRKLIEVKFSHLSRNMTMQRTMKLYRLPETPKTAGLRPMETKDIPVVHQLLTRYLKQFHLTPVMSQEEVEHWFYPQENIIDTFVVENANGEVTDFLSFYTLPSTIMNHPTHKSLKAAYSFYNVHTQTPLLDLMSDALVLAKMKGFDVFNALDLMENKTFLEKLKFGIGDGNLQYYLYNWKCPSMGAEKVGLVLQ
Test: Inhibition of human NMT1
assay.endpoint: pIC50
pIC50 here is simply -log10 of the concentration when that concentration is written in mol/L.

Look up pIC50: `Cc1ncc(CNC(=O)C2CN(c3nc(NCCN(C)C)ncc3Cl)C2)cn1` 4.15

----------
Biological target: UniProtKB Q9U419
Sequence (Q9U419 whole entry): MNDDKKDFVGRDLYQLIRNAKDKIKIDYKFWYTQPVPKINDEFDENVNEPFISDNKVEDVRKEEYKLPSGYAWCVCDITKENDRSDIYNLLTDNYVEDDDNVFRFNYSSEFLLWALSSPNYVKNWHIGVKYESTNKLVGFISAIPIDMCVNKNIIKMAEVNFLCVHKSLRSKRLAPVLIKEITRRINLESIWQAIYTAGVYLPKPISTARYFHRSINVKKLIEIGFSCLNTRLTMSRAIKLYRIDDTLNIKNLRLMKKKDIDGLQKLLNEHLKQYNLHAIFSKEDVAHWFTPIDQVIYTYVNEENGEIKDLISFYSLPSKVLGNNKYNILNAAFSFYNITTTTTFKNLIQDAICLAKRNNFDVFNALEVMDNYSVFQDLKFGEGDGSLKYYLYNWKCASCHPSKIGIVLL
Assay: Inhibition of recombinant Plasmodium falciparum NMT using 3H-myristoyl CoA as substrate preincubated for 15 mins followed by substrate addition and measured after 80 mins
assay.endpoint: pIC50
Reminder that pIC50 means the negative base-10 logarithm of the concentration expressed in mol/L.

I am curious: what pIC50 value has been reported for `Cc1ncc(CNC(=O)C2CN(c3nc(NCCN(C)C)ncc3Cl)C2)cn1` ? 6.32
